- System: HL-60
- testSummary: NCI tumour cell line growth inhibition, 48 h
Active and inactive are the calls of the source. No stated cut-off is given here; in the data, active = GI50 up to about 1.1 µM and inactive = higher.
Outcome codes: 1 (yes) for active, 0 (no) for inactive

- compound: "O=C1OCC(O)=C1C(c1ccc(Cl)cc1)c1cc2c(cc1O)OCO2 (centres undefined)"
  category: "0 (no)"
- compound: "CCSc1n/c(=C\\c2ccco2)c2nncn12"
  category: "0 (no)"
- compound: "COc1cc2cc(C(=O)N3CC(CCl)c4c3cc([N+](C)(C)Cc3ccc([N+](=O)[O-])n3C)c3ccccc43)[nH]c2c(OC)c1OC (centres undefined)"
  category: "0 (no)"
- compound: "CC(=O)[C@]12OC(=O)C3=C1[C@H](CC[C@@H]3C)[C@@H](C)C[C@H]2C=C(C)C"
  category: "0 (no)"
- compound: "COc1cc(C2S/C(=C/c3ccccc3)C(=O)N2c2ccc(Cl)cc2)cc(OC)c1OC (centres undefined)"
  category: "0 (no)"
- compound: "CC(OC(=O)C(CC(=O)OC(C)(C)C)NC(=O)OC(C)(C)C)C(=O)OCc1ccccc1 (centres undefined)"
  category: "0 (no)"
- compound: "Nc1c2c(nc3ccccc13)-c1ccccc1CC2"
  category: "1 (yes)"
- compound: "COc1ccc2c(c1)CC1C3(CCCCC23)CC[N+]1(C)C (centres undefined)"
  category: "0 (no)"
- compound: "O=c1[nH]c(=O)n([C@@H]2O[C@H](CO)[C@@H](O)[C@H]2O)cc1F"
  category: "1 (yes)"
- compound: "N#CC(C#N)=C1C(=Cc2ccc(OCCCCCCCCCCSSCCCCCCCCCCOc3ccc(C=C4C(=C(C#N)C#N)c5ccccc5C4=C(C#N)C#N)cc3)cc2)C(=C(C#N)C#N)c2ccccc21"
  category: "1 (yes)"
- compound: "COc1cc2ccc3c4cc(OC)c(OC(C)C)cc4cnc3c2cc1OC"
  category: "0 (no)"
- compound: "COC(=O)C1OC(Oc2cc(O)c3c(=O)cc(-c4ccc(O)cc4)oc3c2)C(O)C(O)C1O (centres undefined)"
  category: "0 (no)"
- compound: "O=C(O)C(=Cc1ccc(-c2ccc([N+](=O)[O-])cc2)o1)C(=O)O"
  category: "0 (no)"
- compound: "O=[As](O)(O)c1cc(/N=N/c2ccc(-c3ccc(/N=N/c4cc([As](=O)(O)O)c(O)cc4O)cc3)cc2)c(O)cc1O"
  category: "0 (no)"
- compound: "Cc1ccc(S(=O)(=O)NC(=O)Nc2cc(Cl)c(S(N)(=O)=O)cc2S(N)(=O)=O)cc1"
  category: "0 (no)"
- compound: "COc1cc(/C=N\\O[Si](C)(C)C(C)(C)C)ccc1O[Si](C)(C)C(C)(C)C"
  category: "0 (no)"
- compound: "CCC12C=CCN3CCC4(c5cc(C6(C(=O)OC)CCCCCc7c6[nH]c6ccccc76)c(OC)cc5N(C)C4C(O)(C(=O)OC)C1OC(C)=O)C32 (centres undefined)"
  category: "0 (no)"
- compound: "CC1=CCC(C(C)(C)NC(=O)c2ccccc2)C/C1=N/O (centres undefined)"
  category: "0 (no)"
- compound: "CC1(C)Cc2c(c3ccccc3c3nc4c(nc23)c2c(c3ccccc34)OC(C)(C)C2)O1"
  category: "0 (no)"
- compound: "COc1cccc(C2c3cc4c(cc3OC(NNc3ccccc3)C2C)OCO4)c1O (centres undefined)"
  category: "0 (no)"
- compound: "CCCCC1=C(Br)C(=C(Br)Br)OC1=O"
  category: "0 (no)"
- compound: "CCCCC(NC(=O)CC)C(=O)O (centres undefined)"
  category: "0 (no)"
- compound: "COc1ccccc1Cn1c2c(c3c(C(=O)NCCN(C)C)c(O)ccc31)C(=O)c1ccccc1C2=O"
  category: "1 (yes)"
- compound: "BrC1=C(Br)C2(SCCS2)[C@H]2C[C@@H]1c1ccccc12"
  category: "0 (no)"
- compound: "O=[N+]([O-])c1ccc(CN(CCCl)OCCCl)cc1"
  category: "0 (no)"
- compound: "Cc1c2cc[n+](C)cc2c(C)c2c1[nH]c1ccc(O)cc12 [ELLIPTINIUM ACETATE]"
  category: "0 (no)"
- compound: "Nc1nc(-c2ccccc2)nc2c1[n+]([O-])c1ccccc1[n+]2[O-]"
  category: "0 (no)"
- compound: "c1cncc(-c2cc(-c3cc(-c4cccnc4)[nH]n3)n[nH]2)c1"
  category: "0 (no)"
- compound: "O=C(NCCNCCO)N/N=C/c1ccccc1"
  category: "0 (no)"
- compound: "CCOC(=O)C1(C)C2=CC=C(O2)C(C)(C)C2=CC=C(O2)C(C)(C)C2=CC=C(O2)C(C)(C)C2=CC=C1O2"
  category: "0 (no)"
- compound: "COc1cc(C2c3cc4c(cc3OC(N3CCCCC3)C2C)OCO4)cc(OC)c1OC (centres undefined)"
  category: "0 (no)"
- compound: "C(/C=N/c1ccccc1)=C(/Nc1ccccc1)C12CC3CC(CC(C3)C1)C2"
  category: "0 (no)"
- compound: "CCOC(=O)C1=C(Nc2ccc(Br)cc2)OC/C1=N\\NC(=O)c1ccccc1O"
  category: "0 (no)"
- compound: "C[C@@H](Cl)[C@H]1CCCN(Cc2ccc(Br)cc2)C1"
  category: "0 (no)"
